test: in vivo; conditions: mouse, po, mice, orally 300 mg/kg, read-out: Percentage of mortality
Please respond with reported mortality for every item in the list.
One number for each entry, in %.

Query :: Could you tell me which mortality is on file for NC1=NCC(CN2CCOCC2)O1 (stereo not drawn) [Example 7, 2-amino-5-morpholinomethyl-2-oxazoline] ?
Result :: 100

Query :: Could you tell me which mortality is on file for CN1CCN(CC2CN=C(N)O2)CC1 (stereo not drawn) [Example 10] ?
Result :: 0

// each compound listed below needs its mortality
1. CCN(CC)CC1CN=C(N)O1 (stereo not drawn) [Example 1]
2. CC1CCN(CC2CN=C(N)O2)CC1 (stereo not drawn) [Example 5]
3. NC1=NCC(CN2CCN(Cc3ccccc3)CC2)O1 (stereo not drawn) [Example 13]
4. CCCCN(C)CC1CN=C(N)O1 (stereo not drawn) [Example 2]

Result ::
1. 0
2. 0
3. 0
4. 0
